Data provenance is PubChem BioAssay (NCI).

Test system: NCI-H226 lung
protocol.notes: NCI-60 one-dose screen, 48 h (100 = growth as untreated, 0 = no growth, -100 = all killed)
details: 10 µM unless noted
Compounds without any hit were thinned out: in the full panel of roughly 83,000, 20% have a hit.
Could you mark each record t if its growth falls strictly under 60%, and f if it equals or exceeds it?

In [3]: df
Out[3]:
                              sample_smiles  assigned_category
0        Cc1sc2nc(NCc3ccccc3)[nH]c(=O)c2c1C                  f
1  COc1cc(/C=N/NC(=O)c2ccc(C(F)(F)F)nc2Nc2cc(Cl)ccc2C)cc(OC)c1OC                  f

Please look at the following molecule next.
Ask: # strict comparison: is reported growth < 60%? input = COc1cnc2c(c1)C(=O)c1c-2n(CCCN2CCC(O)CC2)c(=O)c2cc(F)ccc12
Result: t

----------
Tested on: BT-549 breast
protocol.notes: NCI-60 one-dose screen, 48 h (100 = growth as untreated, 0 = no growth, -100 = all killed)
details: 10 µM unless noted
This is part of a sample that, as a whole, favours compounds with a hit. Of some 83,000 tested, about 20% had one in any assay. Calls of active or inactive are those of the source. Rule for the calls: active = growth percent below 10; inactive = the rest.
parameter: growth

// below: answered compounds
compound	assayed.target	growth
NC(=N\N=C/Cc1ccccc1)/C(N)=N\N=C\Cc1ccccc1	BT-549 breast	104% (inactive)
CCn1cnc(C[C@H](NC(=O)[C@H](CCCCNC(=O)Nc2cc(C(F)(F)F)cc(C(F)(F)F)c2)NC(=O)Nc2cc(C(F)(F)F)cc(C(F)(F)F)c2)C(=O)OC)c1	BT-549 breast	-35.3% [100 µM] (active)
CCOC(=O)c1sc(NC(=O)COc2cccc(/C=C3\Cc4ccc(Cl)cc4C3=O)c2)nc1C	BT-549 breast	115% (inactive)

# input for lookup
Ask: Quick one: growth of O=C1N=C(N2CCOCC2)S/C1=C\c1cn(-c2ccccc2)nc1-c1ccccc1 ?
Result: 53.8% (inactive)

----------
Below: a set of entries, each annotated with reported growth.
Tested on: NCI-H322M lung
protocol.notes: NCI-60 one-dose screen, 48 h (100 = growth as untreated, 0 = no growth, -100 = all killed)
details: 10 µM unless noted
Compounds without any hit were thinned out: in the full panel of roughly 83,000, 20% have a hit.
Dear colleague, please return just the value in %, with no unit written.

Some solved cases for reference:
In [3]: df
Out[3]:
                                   compound  quantitative_readout
0  COc1ccc(NC(=O)[C@@H]2C[C@H]2c2ccccc2)c(C(N)=O)c1                  94.2
1    O=C1C(=O)c2c(nc3ccc(Cl)cn23)-c2ccccc21                 -92.1
2  CC1CN(/N=C/c2ccc([N+](=O)[O-])o2)C(=N)O1 (stereo not drawn)                   117
3  O=C1c2cc3c(cc2-c2c1c1ccc(Cl)cc1c(=O)n2CCCNCCO)OCO3                 -84.5
4  CCOC(=O)c1cc2oc(/C=C/c3cc(=O)c4cc(Cl)ccc4o3)cc2[nH]1                   108

Ask: Returns the measured growth for the input compound. Input: CCOC(=O)c1sc(NC(=O)COc2cccc(/C=C3\CCc4cc(OC)ccc4C3=O)c2)nc1C
Result: 99.8

Ask: Would you kindly share the measured growth for O=C(Nc1ccccc1)P(=O)(O)c1ccccc1 ?
Result: 119

Ask: Form field: reported growth of CC(=O)c1nn(-c2ccccc2)c(=Nc2ccccc2)cc1C
Result: 103

Ask: growth for Nc1ccccc1C#Cc1ccccc1C#Cc1ccc(OCCCCCCOc2ccc(C#Cc3ccccc3C#Cc3ccccc3N)cc2)cc1 ?
Result: 106

Ask: Using the record for c1ccc2c(-c3nc4ccccc4[nH]3)cccc2c1 , report its growth.
Result: 64.5
